Can you tell me MIC for the items I'm about to list?
# Tested on: Staphylococcus aureus

Query: Determine reported MIC for CC(=O)c1cc(CC=C(C)C)ccc1O ; test system: Staphylococcus aureus.
Result: > 1000 µg/mL

Query: Specify MIC for CC(=O)c1cc(CC=C(C)C)ccc1OCC=C(C)C , system Staphylococcus aureus.
Result: > 1000 µg/mL

Query: Supply MIC measured with Staphylococcus aureus for CC(=O)c1ccccc1OCC=C(C)C .
Result: 500 µg/mL

Query: Please look at CC(=O)c1ccc(OCC=C(C)C)cc1 and tell me its recorded MIC on Staphylococcus aureus.
Result: > 1500 µg/mL

Query: Identify measured MIC obtained with Staphylococcus aureus for O=C(N[C@H](CO)[C@H](O)c1ccc([N+](=O)[O-])cc1)C(Cl)Cl [Chloramphenicol, reference compound] .
Result: 20 µg/mL

Query: Determine reported MIC for CC(=O)c1ccc(OCC=C(C)C)cc1OCC=C(C)C ; test system: Staphylococcus aureus.
Result: 500 to 1000 µg/mL

###

Read-out record for Rhodococcus equi: MIC

Query: Report MIC for CC(=O)c1cc(CC=C(C)C)ccc1O [Compound L2]
Result: > 1000 µg/mL

Query: Kindly indicate its recorded MIC. Item: O=C(N[C@H](CO)[C@H](O)c1ccc([N+](=O)[O-])cc1)C(Cl)Cl [Chloramphenicol, reference compound]
Result: 40 µg/mL

Query: Fill in MIC for record CC(=O)c1ccc(OCC=C(C)C)cc1OCC=C(C)C [2,4O]
Result: 500 to 1000 µg/mL

Query: For the molecule CC(=O)c1cc(CC=C(C)C)ccc1OCC=C(C)C [Compound L3] , report MIC.
Result: > 1000 µg/mL

Query: Fill in MIC for record CC(=O)c1ccc(OCC=C(C)C)cc1 [LP1]
Result: > 1500 µg/mL

Query: Give the reported value of MIC for this record: CC(=O)c1ccccc1OCC=C(C)C [Compound L1]
Result: > 1000 µg/mL

Where do these numbers come from? They come from patent US20090234023A1.
